Values compiled from ChEMBL document CHEMBL1141183.

target: Mu-type opioid receptor (Cavia porcellus); experiment: In vitro inhibition of opioid receptor mu using isolated guinea pig ileum
Sequence (P97266 whole entry): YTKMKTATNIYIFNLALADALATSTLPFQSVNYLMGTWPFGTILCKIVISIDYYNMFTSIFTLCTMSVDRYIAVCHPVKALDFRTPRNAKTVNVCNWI
Reported IC50 values for the following compounds.
Your answer is read as nM, so omit the unit and give the number.

CCc1cc(O)cc(C)c1C[C@H](N)C(=O)N1CCC[C@H]1C(=O)N[C@@H](Cc1ccccc1)C(=O)N[C@@H](Cc1ccccc1)C(N)=O    0.623
CCc1cc(O)cc(CC)c1C[C@H](N)C(=O)N1CCC[C@H]1C(=O)N[C@@H](Cc1ccccc1)C(=O)N[C@@H](Cc1ccccc1)C(N)=O    0.903

Now look at this one.
(Q) Observed IC50 on Mu-type opioid receptor (Cavia porcellus) for Cc1cc(O)c(C)c(C)c1C[C@H](N)C(=O)N1CCC[C@H]1C(=O)N[C@@H](Cc1ccccc1)C(=O)N[C@@H](Cc1ccccc1)C(N)=O , please.
(A) 2.31

====

Reported Ratio values for the following compounds.
molecular target: Opioid receptors; mu & delta (Rattus norvegicus) (UniProt P33533+P33535); assay: Relative binding to delta and mu Opioid receptors (ratio of Ki); type: protein assay
Enter a number only.

CC(C)c1cc(O)cc(C(C)C)c1C[C@H](N)C(=O)N1CCC[C@H]1C(=O)N[C@@H](Cc1ccccc1)C(=O)N[C@@H](Cc1ccccc1)C(N)=O    46
Cc1cc(O)c(C)c(C)c1C[C@H](N)C(=O)N1CCC[C@H]1C(=O)N[C@@H](Cc1ccccc1)C(=O)N[C@@H](Cc1ccccc1)C(N)=O    5350

Now look at this one.
(Q) Observed Ratio on Opioid receptors; mu & delta (Rattus norvegicus) (UniProt P33533+P33535) for CCc1cc(O)cc(CC)c1C[C@H](N)C(=O)N1CCC[C@H]1C(=O)N[C@@H](Cc1ccccc1)C(=O)N[C@@H](Cc1ccccc1)C(N)=O , please.
(A) 830

====

biological target: Mu-type opioid receptor (Cavia porcellus); test: In vitro inhibition of opioid receptor mu using isolated guinea pig ileum
Reported Endpoint: IC50 (nM)
Your answer is read as nM, so omit the unit and give the number.

See these solved cases before continuing.
Cc1cc(O)cc(C(C)C)c1C[C@H](N)C(=O)N1CCC[C@H]1C(=O)N[C@@H](Cc1ccccc1)C(=O)N[C@@H](Cc1ccccc1)C(N)=O    10.6
CC(C)c1cc(O)cc(C(C)C)c1C[C@H](N)C(=O)N1CCC[C@H]1C(=O)N[C@@H](Cc1ccccc1)C(=O)N[C@@H](Cc1ccccc1)C(N)=O    299

Now look at this one.
(Q) So what's the measured IC50 for this one? Cc1cc(O)ccc1C[C@H](N)C(=O)N1CCC[C@H]1C(=O)N[C@@H](Cc1ccccc1)C(=O)N[C@@H](Cc1ccccc1)C(N)=O
(A) 0.924

====

target: Delta-type opioid receptor (Mus musculus, UniProt P32300); assay: In vitro inhibition of opioid receptor delta using mouse vas deferens
Sequence (P32300 whole entry): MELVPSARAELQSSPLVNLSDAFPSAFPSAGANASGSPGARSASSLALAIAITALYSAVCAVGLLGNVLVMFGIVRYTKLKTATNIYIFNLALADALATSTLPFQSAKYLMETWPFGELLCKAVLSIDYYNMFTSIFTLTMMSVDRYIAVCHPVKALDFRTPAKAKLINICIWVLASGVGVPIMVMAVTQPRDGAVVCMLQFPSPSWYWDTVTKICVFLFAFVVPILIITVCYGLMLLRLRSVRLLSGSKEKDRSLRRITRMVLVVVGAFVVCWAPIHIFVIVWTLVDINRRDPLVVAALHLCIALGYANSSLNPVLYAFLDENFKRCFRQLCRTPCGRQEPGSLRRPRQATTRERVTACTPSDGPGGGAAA
Reported IC50 values for the following compounds.

See these solved cases before continuing.
CC(C)c1cc(O)cc(C(C)C)c1C[C@H](N)C(=O)N1CCC[C@H]1C(=O)N[C@@H](Cc1ccccc1)C(=O)N[C@@H](Cc1ccccc1)C(N)=O    > 10000 nM
Cc1cc(O)ccc1C[C@H](N)C(=O)N1CCC[C@H]1C(=O)N[C@@H](Cc1ccccc1)C(=O)N[C@@H](Cc1ccccc1)C(N)=O    28.7 nM
Cc1cc(O)cc(C(C)C)c1C[C@H](N)C(=O)N1CCC[C@H]1C(=O)N[C@@H](Cc1ccccc1)C(=O)N[C@@H](Cc1ccccc1)C(N)=O    601 nM
CCc1cc(O)cc(CC)c1C[C@H](N)C(=O)N1CCC[C@H]1C(=O)N[C@@H](Cc1ccccc1)C(=O)N[C@@H](Cc1ccccc1)C(N)=O    47.1 nM
CCc1cc(O)cc(C)c1C[C@H](N)C(=O)N1CCC[C@H]1C(=O)N[C@@H](Cc1ccccc1)C(=O)N[C@@H](Cc1ccccc1)C(N)=O    1.08 nM

(Q) So what's the measured IC50 for this one? Cc1cc(O)c(C)c(C)c1C[C@H](N)C(=O)N1CCC[C@H]1C(=O)N[C@@H](Cc1ccccc1)C(=O)N[C@@H](Cc1ccccc1)C(N)=O
(A) 46.4 nM

====

Reported Ki values for the following compounds.
molecular target: Delta-type opioid receptor (Rattus norvegicus); assay: Inhibition of [3H]DPDPE binding to delta-Opioid receptor
Sequence (P33533 whole entry): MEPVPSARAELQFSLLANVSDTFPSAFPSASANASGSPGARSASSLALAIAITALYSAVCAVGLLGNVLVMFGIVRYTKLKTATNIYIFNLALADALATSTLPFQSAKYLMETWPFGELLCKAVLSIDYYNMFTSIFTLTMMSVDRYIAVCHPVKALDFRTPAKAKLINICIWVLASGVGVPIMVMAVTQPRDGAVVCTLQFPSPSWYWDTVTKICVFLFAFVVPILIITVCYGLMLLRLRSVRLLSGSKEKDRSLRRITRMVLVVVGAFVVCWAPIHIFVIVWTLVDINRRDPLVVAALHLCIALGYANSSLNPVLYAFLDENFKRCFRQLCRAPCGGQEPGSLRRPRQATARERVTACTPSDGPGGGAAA
Your answer is read as nM, so omit the unit and give the number.

See these solved cases before continuing.
CCc1cc(O)cc(CC)c1C[C@H](N)C(=O)N1CCC[C@H]1C(=O)N[C@@H](Cc1ccccc1)C(=O)N[C@@H](Cc1ccccc1)C(N)=O    69.7
CCc1cc(O)cc(C)c1C[C@H](N)C(=O)N1CCC[C@H]1C(=O)N[C@@H](Cc1ccccc1)C(=O)N[C@@H](Cc1ccccc1)C(N)=O    55.7
CC(C)c1cc(O)cc(C(C)C)c1C[C@H](N)C(=O)N1CCC[C@H]1C(=O)N[C@@H](Cc1ccccc1)C(=O)N[C@@H](Cc1ccccc1)C(N)=O    105
Cc1cc(O)ccc1C[C@H](N)C(=O)N1CCC[C@H]1C(=O)N[C@@H](Cc1ccccc1)C(=O)N[C@@H](Cc1ccccc1)C(N)=O    529
Cc1cc(O)cc(C(C)C)c1C[C@H](N)C(=O)N1CCC[C@H]1C(=O)N[C@@H](Cc1ccccc1)C(=O)N[C@@H](Cc1ccccc1)C(N)=O    190

Now look at this one.
(Q) So what's the measured Ki for this one? Cc1cc(O)c(C)c(C)c1C[C@H](N)C(=O)N1CCC[C@H]1C(=O)N[C@@H](Cc1ccccc1)C(=O)N[C@@H](Cc1ccccc1)C(N)=O
(A) 593

====

molecular target: UniProtKB P33535
Sequence (P33535 whole entry): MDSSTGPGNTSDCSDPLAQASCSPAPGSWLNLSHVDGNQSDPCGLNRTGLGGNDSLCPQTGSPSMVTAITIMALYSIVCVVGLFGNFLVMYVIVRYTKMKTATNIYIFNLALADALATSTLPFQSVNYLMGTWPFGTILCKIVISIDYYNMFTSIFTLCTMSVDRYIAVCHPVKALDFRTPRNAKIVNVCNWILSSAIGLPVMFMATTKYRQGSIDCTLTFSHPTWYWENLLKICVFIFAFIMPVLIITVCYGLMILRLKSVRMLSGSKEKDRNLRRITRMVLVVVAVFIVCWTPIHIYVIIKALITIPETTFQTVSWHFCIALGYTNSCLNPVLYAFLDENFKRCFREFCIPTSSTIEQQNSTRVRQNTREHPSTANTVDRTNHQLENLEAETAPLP
Reported Endpoint: Ki
Returns: string containing the numeric result and its unit.

See these solved cases before continuing.
CC(C)c1cc(O)cc(C(C)C)c1C[C@H](N)C(=O)N1CCC[C@H]1C(=O)N[C@@H](Cc1ccccc1)C(=O)N[C@@H](Cc1ccccc1)C(N)=O    2.29 nM
Cc1cc(O)c(C)c(C)c1C[C@H](N)C(=O)N1CCC[C@H]1C(=O)N[C@@H](Cc1ccccc1)C(=O)N[C@@H](Cc1ccccc1)C(N)=O    0.111 nM
CCc1cc(O)cc(CC)c1C[C@H](N)C(=O)N1CCC[C@H]1C(=O)N[C@@H](Cc1ccccc1)C(=O)N[C@@H](Cc1ccccc1)C(N)=O    0.084 nM
CCc1cc(O)cc(C)c1C[C@H](N)C(=O)N1CCC[C@H]1C(=O)N[C@@H](Cc1ccccc1)C(=O)N[C@@H](Cc1ccccc1)C(N)=O    0.063 nM
Cc1cc(O)ccc1C[C@H](N)C(=O)N1CCC[C@H]1C(=O)N[C@@H](Cc1ccccc1)C(=O)N[C@@H](Cc1ccccc1)C(N)=O    0.132 nM

Now look at this one.
(Q) Observed Ki on UniProtKB P33535 for Cc1cc(O)cc(C(C)C)c1C[C@H](N)C(=O)N1CCC[C@H]1C(=O)N[C@@H](Cc1ccccc1)C(=O)N[C@@H](Cc1ccccc1)C(N)=O , please.
(A) 0.15 nM
